Source of measurements: patent US20160264649A1

- target_system: HIV-1 Env of isolate 98CN009 (subtype CRF07_BC) (HIV-1)
- method_notes: cell-based or functional assay
observed_property: IC50 (neutralization) (µg/mL)
Give bare numbers, in µg/mL.

For orientation, consider the following solved cases.
PGT-130 (antibody, V domains shown) VH: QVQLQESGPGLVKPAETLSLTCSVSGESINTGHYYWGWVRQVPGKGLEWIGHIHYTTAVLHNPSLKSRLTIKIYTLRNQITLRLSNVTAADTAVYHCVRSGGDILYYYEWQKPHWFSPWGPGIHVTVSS VL: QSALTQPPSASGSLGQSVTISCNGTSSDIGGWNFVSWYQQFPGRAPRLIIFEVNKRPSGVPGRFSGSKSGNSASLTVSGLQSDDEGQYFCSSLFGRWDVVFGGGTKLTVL :: 0.136
PGT-131 (antibody, V domains shown) VH: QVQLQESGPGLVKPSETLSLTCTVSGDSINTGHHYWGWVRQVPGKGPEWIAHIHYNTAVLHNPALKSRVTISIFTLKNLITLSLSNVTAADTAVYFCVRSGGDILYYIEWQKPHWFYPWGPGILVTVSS VL: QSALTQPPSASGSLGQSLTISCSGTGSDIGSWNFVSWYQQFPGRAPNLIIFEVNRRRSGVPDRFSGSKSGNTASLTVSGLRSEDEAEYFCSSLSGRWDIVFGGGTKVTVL :: 4.05

Shifting focus to the binder that follows.
Supply reported IC50 (neutralization) belonging to this binder: PGT-135 (antibody, V domains shown) VH: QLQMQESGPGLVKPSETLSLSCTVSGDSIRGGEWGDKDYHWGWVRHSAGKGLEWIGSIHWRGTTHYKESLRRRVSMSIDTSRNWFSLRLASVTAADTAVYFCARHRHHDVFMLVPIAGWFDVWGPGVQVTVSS VL: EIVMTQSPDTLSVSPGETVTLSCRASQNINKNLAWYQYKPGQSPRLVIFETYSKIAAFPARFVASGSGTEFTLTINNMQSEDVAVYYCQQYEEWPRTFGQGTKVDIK 0.071
